# assayed_target: Ybr033w (UniProt P38073)
# Sequence: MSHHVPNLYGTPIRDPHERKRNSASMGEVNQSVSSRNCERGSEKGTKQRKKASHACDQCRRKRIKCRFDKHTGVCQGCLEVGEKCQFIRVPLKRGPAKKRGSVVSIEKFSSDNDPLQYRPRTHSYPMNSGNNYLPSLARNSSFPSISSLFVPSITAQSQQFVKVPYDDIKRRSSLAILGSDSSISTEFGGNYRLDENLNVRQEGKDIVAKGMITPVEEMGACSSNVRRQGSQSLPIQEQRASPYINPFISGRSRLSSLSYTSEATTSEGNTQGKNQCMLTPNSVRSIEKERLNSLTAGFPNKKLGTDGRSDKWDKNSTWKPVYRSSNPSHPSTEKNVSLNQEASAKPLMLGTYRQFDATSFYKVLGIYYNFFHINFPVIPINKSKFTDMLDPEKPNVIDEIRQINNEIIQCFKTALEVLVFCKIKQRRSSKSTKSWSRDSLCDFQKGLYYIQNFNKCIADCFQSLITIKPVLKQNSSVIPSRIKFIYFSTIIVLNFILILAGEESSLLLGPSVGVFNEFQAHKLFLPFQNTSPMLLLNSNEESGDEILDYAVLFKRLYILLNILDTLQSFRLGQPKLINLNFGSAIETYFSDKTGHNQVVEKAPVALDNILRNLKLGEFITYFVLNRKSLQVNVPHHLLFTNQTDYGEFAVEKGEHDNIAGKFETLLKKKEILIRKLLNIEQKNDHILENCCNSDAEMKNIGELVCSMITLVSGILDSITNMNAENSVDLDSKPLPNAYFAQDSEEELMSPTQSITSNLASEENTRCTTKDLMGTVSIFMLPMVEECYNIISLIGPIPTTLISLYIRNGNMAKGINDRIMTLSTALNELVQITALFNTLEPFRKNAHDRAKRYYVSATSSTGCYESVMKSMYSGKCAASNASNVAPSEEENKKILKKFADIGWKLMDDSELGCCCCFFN
# test_name: PBM E-score (8-mer binding enrichment) (E-score (-0.5 to 0.5)); higher = stronger / more preferred TF binding
# condition_parameters: protein concentration: 200 nM; construct: GST-full length
Over roughly 33,000 sequences, “E-score (-0.5 to 0.5)” has its median near -0.012; the highest 2% begin near 0.29. The entries come from a sample that favours the highest values as a whole.
test_readout: PBM E-score
Response field accepts a number only; no unit should be typed.

A selection of reference data follows.
{"columns": ["monomer_sequence", "test_readout", "result_value"],
 "data": [
  ["TGGAGAAA", "PBM E-score", 0.133],
  ["GAATCGCC", "PBM E-score", -0.138],
  ["GACTTTAC", "PBM E-score", 0.03],
  ["CTTGGCTC", "PBM E-score", -0.146],
  ["ACCGGTCA", "PBM E-score", -0.2],
  ["GAATATAC", "PBM E-score", 0.141],
  ["CTCTAGGC", "PBM E-score", -0.153],
  ["ACGACCAT", "PBM E-score", -0.108],
  ["ATTCTCCG", "PBM E-score", 0.305],
  ["TCACCTAA", "PBM E-score", 0.0978]
]}

The record that follows has no PBM E-score shown yet.
Looking for the measured PBM E-score of CGGAGAAG , can you help?
-0.166

====

Reported PBM E-score values for a set of sequences
# assayed_target: Ybr033w (UniProt P38073)
# Sequence: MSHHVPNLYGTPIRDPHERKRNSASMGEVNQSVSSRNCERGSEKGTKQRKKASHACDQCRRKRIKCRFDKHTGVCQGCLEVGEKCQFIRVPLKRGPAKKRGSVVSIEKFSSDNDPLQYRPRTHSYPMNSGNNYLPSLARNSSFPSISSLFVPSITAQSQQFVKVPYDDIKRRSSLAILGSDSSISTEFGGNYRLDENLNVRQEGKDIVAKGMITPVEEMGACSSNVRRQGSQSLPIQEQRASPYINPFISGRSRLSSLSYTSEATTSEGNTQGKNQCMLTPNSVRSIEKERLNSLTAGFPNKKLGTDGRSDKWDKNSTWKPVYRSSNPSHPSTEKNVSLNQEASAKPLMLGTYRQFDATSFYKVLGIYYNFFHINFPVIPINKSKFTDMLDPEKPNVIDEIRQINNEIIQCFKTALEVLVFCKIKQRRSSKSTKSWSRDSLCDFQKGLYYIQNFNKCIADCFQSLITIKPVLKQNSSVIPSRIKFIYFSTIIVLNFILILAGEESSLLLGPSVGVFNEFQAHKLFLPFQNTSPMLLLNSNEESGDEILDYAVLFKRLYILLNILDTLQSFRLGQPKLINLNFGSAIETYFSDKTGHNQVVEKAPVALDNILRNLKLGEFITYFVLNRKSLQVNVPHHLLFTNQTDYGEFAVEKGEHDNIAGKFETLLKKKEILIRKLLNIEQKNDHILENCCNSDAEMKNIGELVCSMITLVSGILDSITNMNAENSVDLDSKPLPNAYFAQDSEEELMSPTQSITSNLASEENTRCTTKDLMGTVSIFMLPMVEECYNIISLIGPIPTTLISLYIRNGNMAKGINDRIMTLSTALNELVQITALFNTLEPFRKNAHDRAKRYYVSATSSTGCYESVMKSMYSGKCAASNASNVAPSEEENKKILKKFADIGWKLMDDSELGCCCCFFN
# test_name: PBM E-score (8-mer binding enrichment) (E-score (-0.5 to 0.5)); higher = stronger / more preferred TF binding
# condition_parameters: protein concentration: 200 nM; construct: GST-full length
In all, about 33,000 sequences were measured (“E-score (-0.5 to 0.5)”: median about -0.012, highest 2% from about 0.29 on). This is one part of a sample in which the highest values are shown more often than they occur.

A selection of reference data follows.
{"columns": ["monomer_sequence", "PBM E-score"],
 "data": [
  ["ACGCCCCT", -0.389],
  ["GAATTAAC", 0.249],
  ["CAGCCTAG", 0.0256],
  ["ATCTTCCG", 0.438]
]}

The record that follows has no PBM E-score shown yet.
GET /values?readout=PBM E-score&system=Ybr033w (UniProt P38073)&item= GCATTATA
0.0824

====

# assayed_target: Ybr033w (UniProt P38073)
# Sequence: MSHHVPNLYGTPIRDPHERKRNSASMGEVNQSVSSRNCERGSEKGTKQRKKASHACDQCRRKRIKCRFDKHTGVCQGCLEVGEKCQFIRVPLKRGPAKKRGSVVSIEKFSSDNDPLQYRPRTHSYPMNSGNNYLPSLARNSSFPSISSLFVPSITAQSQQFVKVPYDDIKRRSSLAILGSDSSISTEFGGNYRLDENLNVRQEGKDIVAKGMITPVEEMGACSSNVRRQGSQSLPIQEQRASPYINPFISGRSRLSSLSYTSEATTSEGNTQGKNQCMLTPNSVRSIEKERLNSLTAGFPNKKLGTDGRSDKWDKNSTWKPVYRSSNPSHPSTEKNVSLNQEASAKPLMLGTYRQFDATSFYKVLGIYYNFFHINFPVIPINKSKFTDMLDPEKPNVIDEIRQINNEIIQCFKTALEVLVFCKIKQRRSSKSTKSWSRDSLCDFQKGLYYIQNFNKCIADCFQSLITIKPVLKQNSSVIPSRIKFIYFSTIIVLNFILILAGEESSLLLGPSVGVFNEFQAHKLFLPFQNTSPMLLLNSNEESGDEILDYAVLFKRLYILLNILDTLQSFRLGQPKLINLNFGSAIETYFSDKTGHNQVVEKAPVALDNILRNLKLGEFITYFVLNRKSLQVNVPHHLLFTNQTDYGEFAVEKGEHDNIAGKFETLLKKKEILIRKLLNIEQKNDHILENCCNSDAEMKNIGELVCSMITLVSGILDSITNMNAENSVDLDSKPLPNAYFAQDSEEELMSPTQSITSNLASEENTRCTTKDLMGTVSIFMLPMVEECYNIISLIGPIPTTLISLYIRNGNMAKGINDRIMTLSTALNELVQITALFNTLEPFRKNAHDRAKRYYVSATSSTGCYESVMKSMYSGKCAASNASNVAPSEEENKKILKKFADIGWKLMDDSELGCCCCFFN
# test_name: PBM E-score (8-mer binding enrichment) (E-score (-0.5 to 0.5)); higher = stronger / more preferred TF binding
# condition_parameters: protein concentration: 200 nM; construct: GST-full length
The full ranking holds about 33,000 sequences; the median of “E-score (-0.5 to 0.5)” is about -0.012, and the highest 2% start at about 0.29. The sample as a whole holds a higher share of the highest values than the screen did.
Criterion: PBM E-score meeting or surpassing 0.1. Met: true. Not met: false.

Here are 3 sequences together with their reported answers.
{"columns": ["monomer_sequence", "discrete_label"],
 "data": [
  ["AATGTTCA", "false"],
  ["TGGGAACA", "true"],
  ["AGGATCAA", "true"]
]}

Please tell me: is the sequence TATAGGAA at or over 0.1 in terms of PBM E-score?
true

Please tell me: is the sequence AATAGGAA at or over 0.1 in terms of PBM E-score?
true

Please tell me: is the sequence AATAGGAC at or over 0.1 in terms of PBM E-score?
false

Please tell me: is the sequence GTCCACAA at or over 0.1 in terms of PBM E-score?
false

Please tell me: is the sequence CAGTGCAG at or over 0.1 in terms of PBM E-score?
false

Please tell me: is the sequence TTCCAGAA at or over 0.1 in terms of PBM E-score?
true

Please tell me: is the sequence GTCCAGAA at or over 0.1 in terms of PBM E-score?
false

Please tell me: is the sequence GGGGCCAA at or over 0.1 in terms of PBM E-score?
false

Please tell me: is the sequence AATAGGAT at or over 0.1 in terms of PBM E-score?
true

Please tell me: is the sequence ATTAGAGA at or over 0.1 in terms of PBM E-score?
true

Please tell me: is the sequence TTCCACAA at or over 0.1 in terms of PBM E-score?
true

Please tell me: is the sequence CTCACTTA at or over 0.1 in terms of PBM E-score?
false

Please tell me: is the sequence AGCCCACG at or over 0.1 in terms of PBM E-score?
false

Please tell me: is the sequence ACATGACC at or over 0.1 in terms of PBM E-score?
false

Please tell me: is the sequence AATTGCCT at or over 0.1 in terms of PBM E-score?
false

Please tell me: is the sequence ACGGAACA at or over 0.1 in terms of PBM E-score?
true

Please tell me: is the sequence AATAGGAG at or over 0.1 in terms of PBM E-score?
false

Please tell me: is the sequence TCGGAACA at or over 0.1 in terms of PBM E-score?
true

Please tell me: is the sequence CGTGACAC at or over 0.1 in terms of PBM E-score?
false
